Molecular target: T1, exemplary TAT frataxin fusion molecule (HIV-1, UniProt Q16595 1-210)
T1 construct: in the bridging assays biotinylated and sulfotagged forms were used; also called TAT-FXN fusion molecule; TAT FXN fusion molecule
T1 sequence: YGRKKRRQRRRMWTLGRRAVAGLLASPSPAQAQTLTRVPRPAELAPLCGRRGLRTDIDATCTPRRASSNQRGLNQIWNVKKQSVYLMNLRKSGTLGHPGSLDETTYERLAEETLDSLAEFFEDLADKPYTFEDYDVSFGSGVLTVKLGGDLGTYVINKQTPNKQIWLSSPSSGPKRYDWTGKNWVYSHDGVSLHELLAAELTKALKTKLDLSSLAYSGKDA
Test: PK sandwich ELISA in human plasma, antibody as capture, HRP anti-frataxin mAb detection
Each item that follows carries a reported Mean OD at plasma conc. 6.40 ng/mL.
Report as a plain number; the unit OD is understood.

Use the examples below as a reference point.
antibody 10-5 (antibody, V domains shown, Rabbit monoclonal) VH: QSLEESGGDLVKPGASLTLTCTASGFSFSSGYWICWVRQAPGKGLEWIACIYTGDGDTSYASWAKGRFTISKTSSTTVTLQMTSLTVADTAIYFCARDTSGTFYYNLWGPGTLVAVSS VL: DVVMTQTPSPVSAPVGGTVTINCQASQNIYSNLAWYQQKPGQPPKLLIYGASTLASGVSSRFKGSRSGTEFTLTISDLECADAATYYCQSYVYSSSTADTFGGGTKVVVE ... 0.447
antibody 12-1 (antibody, V domains shown, Rabbit monoclonal) VH: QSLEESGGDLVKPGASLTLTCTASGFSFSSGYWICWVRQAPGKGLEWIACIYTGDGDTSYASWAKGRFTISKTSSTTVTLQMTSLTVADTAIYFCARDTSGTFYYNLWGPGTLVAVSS VL: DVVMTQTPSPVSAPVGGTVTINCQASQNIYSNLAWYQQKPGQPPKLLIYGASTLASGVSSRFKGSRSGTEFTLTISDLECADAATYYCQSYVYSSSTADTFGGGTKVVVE ... 0.433

Continue with the binder presented below.
The recorded Mean OD at plasma conc. 6.40 ng/mL for antibody 12-10 (antibody, V domains shown, Rabbit monoclonal) VH: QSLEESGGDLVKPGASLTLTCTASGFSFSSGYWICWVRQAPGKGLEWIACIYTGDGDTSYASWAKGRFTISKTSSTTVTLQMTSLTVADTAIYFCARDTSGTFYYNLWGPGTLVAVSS VL: AAVLTQTPSSVSAAVGGTVTISCQSSESVYKTNYLSWFQKKPGQPPKLLIYDASTLASGVPSRFSGSGSGTQFTLTISDLECDDAATYYCAGGYSDDINAFGGGTEVEIK is 0.447
